Numbers sourced from the supplement of paper PMC9170038.

Items are presented alongside their recorded apparent KD of K4 kissing-loop reporter.
# System: K4 kissing-loop RNA reporter;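 note: bound reporter read as fluorescence of individual clusters on recovered sequencing chips by microscopy, with normalized cluster intensities fitted with a binding model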
# measurement.notes: apparent KD of K4 kissing-loop reporter; higher = weaker reporter binding
# stated.conditions: Eterna round: R107; input ligand: FMN 200 uM

{"seq": "GGAUCCACCAGUGAUGUUGGAGAAAACUUCAAGGAUAUGACGAAAGUCAGAAGGUGGUAGACUGGACAAAGUCCGGUGGGAUCCA [FmnA10 U29+G78]", "apparent KD of K4 kissing-loop reporter / nM": 622}
{"seq": "AAAAUAAAUCAGUGAUGUUGGUAUCCGGAUACCAGCGAUAAUCAUCGCCCUUGGCAGCCGUGGACGUACAAAAUAAGUACGUCCU [MatMod 16 - Jieux - Same State - Theophylline A]", "apparent KD of K4 kissing-loop reporter / nM": 137}
{"seq": "AAAGAGUCACUCGAAGCUAUCGAAGAUAGGCGAGGACCGGUACGGCCGCCACUCGGAGUGAUGUUCCGAAGACUGUAAAAUAAAA [MatMod 12 - Jieux - Exclusion - Tryptophan A]", "apparent KD of K4 kissing-loop reporter / nM": 208}
{"seq": "AGGCACGAGCAAGGAUAUCGAGUAGAGUGAUGUUCUGCCUGGGUUGGCGCGCAAGGGCCUUCCCAGCGAGAAGGUGCUCGUGCCU [#2 Same State - FMN A Attempt #11 (HarryS)]", "apparent KD of K4 kissing-loop reporter / nM": 221}
{"seq": "CAUACGCAUGGAGGAUAUGAGAUUACUCAUAUUAUUUAAUAUUCUCAGUGAUGUUGAGAUAUAAACUCAGAAGGCCAUGUGUAUG [Ex FMN B 1]", "apparent KD of K4 kissing-loop reporter / nM": 184}
